Value source: the RNAGym collection of RNA variant scans (doi:10.7554/elife.90254)

B1: LINE1-full (parent)
chain: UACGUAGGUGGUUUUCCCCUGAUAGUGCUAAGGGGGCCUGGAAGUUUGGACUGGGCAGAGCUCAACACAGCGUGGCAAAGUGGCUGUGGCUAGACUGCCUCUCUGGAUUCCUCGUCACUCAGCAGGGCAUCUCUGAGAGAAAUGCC

- Variants of: B1
- test.details: self-cleavage, relative activity (ratio to wild type); higher = more cleavage; in vitro, sequencing; the parent is a self-cleaving ribozyme

sequence.text: UACGUAGGUGGUUUUCCCCUGAUAGUGCUAAGGGGGCCUGGAAGUUUGGACUGGGCAGAGCUCAACACAGCGUGGCAAAGUGGCUGUGGCUAGACUGCCUCUCUGGAUUCCUCGCCACUCAGCAGGGCAGCUCUGAGAGAAAUGCC [U115C U130G]
self-cleavage: 0.66
//
sequence.text: UACGUAGCUGGUUUUCCCCUGAUAGUGCUAAGGGGGCCCGGAAGUUUGGACUGGGCAGAGCUCAACACAGCGUGGCAAAGUGGCUGUGGCUAGACUGCCUCUCUGGAUUCCUCGUCACUCAGCAGGGCAUCUCUGAGAGAAAUGCC [G8C U39C]
self-cleavage: 0.91
//
sequence.text: UACGUAGGUGGUUUUCCCCUGAUAGUGCUAAGGGGGCCUGGAAGUUUAGACUGGGCAGAGCUCAACACAGCGUGGCAAAGUGGCUGUGGCUAGACUGCCUCUCUGGAUUCCUCGUCGCUCAGCAGGGCAUCUCUGAGAGAAAUGCC [G48A A117G]
self-cleavage: 1.47
//
sequence.text: CACGUAGGUGGUUUUCCCCUGAUAGUGCUAAGGGGGCCUGGAAGUUUGGACUGGGCAGAGCUCAACACAGCGUGGCAAAGUGGCUGUGGCUAGACUGCCUCUCUGGAUUCCUCGUCACUCAGCAGGGCAUCUCUGAGAGAAAAGCC [U1C U143A]
self-cleavage: 1.35
//
sequence.text: UACGUAGGUGGAUUUCCCCUGAUAGUGCUAAGGGGGCCUGGAAGUUUGGACUGGGCAGAGCUCAACACAGCGUGGCAAAGUGGCUGUGGCUAGACUGCCACUCUGGAUUCCUCGUCACUCAGCAGGGCAUCUCUGAGAGAAAUGCC [U12A U100A]
self-cleavage: 0.87
//
sequence.text: UACGUAGGUAGUUUUCCCCUGAUAGUGCUAAGGGGGCCUGGAAGUUUGGACUGGGCAGAGCUCAACACAGCGUGGCAAAGUGGCUGUGGCUAGACUGCCUCUCUGGAUUCCUCGUCACUCAGCAGGGCAUCUCUGAGGGAAAUGCC [G10A A138G]
self-cleavage: 1.2
//
sequence.text: UACGUAGGUGGCUUUCCCCUGAUAGUGCUAAGGGGGCCUGGAAGUUUGGACUGGGCAGAGCUCAACACAGCGUGGCAAAGUGGCUGUGGCUAGACUGCCUCUCUGGAUUCCUCGUCACUCAGCAGGGCAUCUCAGAGAGAAAUGCC [U12C U134A]
self-cleavage: 1.22
//
sequence.text: UACGUAGGUGGUUUUCCCCUGAUAGUGCUAAGGGGGCCUGGAAGUUUGGACUGGGUAGAGCUCAACACAGCGUGGCAAAGUGGCUGUGGCUAGACUGCCUCUCUGGAUUCCUCGUCACUCAGCAGGGCGUCUCUGAGAGAAAUGCC [C56U A129G]
self-cleavage: 0.22
//
sequence.text: UACGUAGGUGGUUUUCCCCUGAUAGUGCUAAGGGGGCCUGGAAGUUUGGACUGGGCAGAGCUCAACACAGCGUGGCAAAGUGGCUGUGGCUAGUCUGCCUCUCUGGAUUCCUCGUCACUCAGCAGGGCAUCUCAGAGAGAAAUGCC [A94U U134A]
self-cleavage: 0.25
//
sequence.text: UACGUAGGUGGUUUUCCCCUGAUAAUGCUAAGGGGGCCUGGAAGUUUGGACUGGGCAGAGCUCAACACAGCGUGGCAAAGUGGCUGUGGCUAGACUGCCUCUCUGGAUUCCUCGUCACUCAGCAGGGCAUCUCUGAGAGAGAUGCC [G25A A141G]
self-cleavage: 0.96
//
sequence.text: UACGUAGGUGGUUUGCCCCUGAUAGUGCUAAGGGGGCCUGGAAGUUUGGACUGGGCAGAGCUCAACACAGCGUGGCAAAGUGGCUGUGGCUAGACUGCCUCUCUGGAUUCCUCGUCAUUCAGCAGGGCAUCUCUGAGAGAAAUGCC [U15G C118U]
self-cleavage: 0.97
//
sequence.text: UACGUAGGUGGUUUUCCCCUGUUAGUGCUAAGGGGGCCUGGAAGUUUGGACUGGGCAGAGCUCAACACAGCGUGGCAAAGUGGCUGUGGCUAGACUGCCUCUCUGGAUUCCUCGUCACUCAGCAGGGCAUCCCUGAGAGAAAUGCC [A22U U132C]
self-cleavage: 1.6
//
sequence.text: UACGUAGGUGGUUUUCCCCUGGUAGUGCUAAGGGGGCCUGGAAGUUUGGACUGGGCAGAGCUCAACACUGCGUGGCAAAGUGGCUGUGGCUAGACUGCCUCUCUGGAUUCCUCGUCACUCAGCAGGGCAUCUCUGAGAGAAAUGCC [A22G A69U]
self-cleavage: 0.14
//
sequence.text: UACGUAGGUGGUUUUCCCCUGAUAGUGCUAAGGGGGCCUGGAAGUUUGGACAGGGCAGAGCUCAACACAGCGUGGCAAAGCGGCUGUGGCUAGACUGCCUCUCUGGAUUCCUCGUCACUCAGCAGGGCAUCUCUGAGAGAAAUGCC [U52A U81C]
self-cleavage: 1.51
//
sequence.text: UACGUAGGCGGUUUUCCCCUAAUAGUGCUAAGGGGGCCUGGAAGUUUGGACUGGGCAGAGCUCAACACAGCGUGGCAAAGUGGCUGUGGCUAGACUGCCUCUCUGGAUUCCUCGUCACUCAGCAGGGCAUCUCUGAGAGAAAUGCC [U9C G21A]
self-cleavage: 1.32
//
sequence.text: UACGUAGGUGGUUUUCCCCUGAUAGUGCUAAGGGGGCCUGGAAGUUUGGACUGGGCAGAGCUCAGCACAGCGUGGCAAAGUGGCUGUGGUUAGACUGCCUCUCUGGAUUCCUCGUCACUCAGCAGGGCAUCUCUGAGAGAAAUGCC [A65G C90U]
self-cleavage: 0.03
//
sequence.text: UACGUAGGUGGUUUUCCCCUGAUAGUGCUGAGGGGGCCUGGAAGUUUGGACUGGGCAGAGCUCAACACAGCGUGGCAAAGUGGCUGUGGCUAGACUGCCUCUCUGGAUUCCCCGUCACUCAGCAGGGCAUCUCUGAGAGAAAUGCC [A30G U112C]
self-cleavage: 0.96
//
sequence.text: UACGUAGGUGGUUUUCCCCUGAUAGUGCUAAGGGGGCCUGGAAGUUUGGACUGGGCAGAGCUCAACGCAGCGUGGCAAAGUGGCUGUGGCUAGACUGCCUCUCUGGAUUCCUAGUCACUCAGCAGGGCAUCUCUGAGAGAAAUGCC [A67G C113A]
self-cleavage: 0.45
//
sequence.text: UACGUAGGUGGUUUUCCCCUGCUAGUGCUAAGGGGGCCUGGAAGUUUGGUCUGGGCAGAGCUCAACACAGCGUGGCAAAGUGGCUGUGGCUAGACUGCCUCUCUGGAUUCCUCGUCACUCAGCAGGGCAUCUCUGAGAGAAAUGCC [A22C A50U]
self-cleavage: 1.02
//
sequence.text: UACGUAGGUGGUUUUCCCCUGAUAGUGCUAAGGGGGCCUGGGAGUUUGGACUGGGCAGAGCUCAACACAGCGUGGCAAAGUGGCUGUGGCUAGACUGCCUCUCUGGAUUCCUCGUCACUCAGCAGGGCAUCACUGAGAGAAAUGCC [A42G U132A]
self-cleavage: 1.8
//
sequence.text: UACGUAGGUGGUUUUCCCCUGAUAGUGCUAAGGGGGCCUGGAAGUUUGGACUGGGCAGAGCACAACACAGCGUGGCAAAGUGGCUGUGGCUAGACUGCCUCUCUGGAUUCCUCGUAACUCAGCAGGGCAUCUCUGAGAGAAAUGCC [U62A C116A]
self-cleavage: 0.05
//
sequence.text: UACGUAGGUGGUUUUCCCCUGAUAGAGCUAAGGGGGCCUGGAAGUUUGGACUGGGCAGAGCUCAACACAGCGUGGCAGAGUGGCUGUGGCUAGACUGCCUCUCUGGAUUCCUCGUCACUCAGCAGGGCAUCUCUGAGAGAAAUGCC [U26A A78G]
self-cleavage: 0.74
//
sequence.text: UACGUAGGUGGUCUUCCCCGGAUAGUGCUAAGGGGGCCUGGAAGUUUGGACUGGGCAGAGCUCAACACAGCGUGGCAAAGUGGCUGUGGCUAGACUGCCUCUCUGGAUUCCUCGUCACUCAGCAGGGCAUCUCUGAGAGAAAUGCC [U13C U20G]
self-cleavage: 0.69
